Tested on: IFNγ
Test: Inhibitory activity on IFNγ production in concanavalin A-stimulated spleen cells
Format: cell-based, Balb/c mice
Setup conditions: Balb/c mouse spleen cells, 5 µg/ml concanavalin A, 24 hours, EIA
pIC50: −log10 of the molar value.

{"columns": ["Input smiles", "pIC50"],
 "data": [
  ["Cc1nnc2n1-c1ccccc1C(c1ccc(Cl)cc1)=NN2Cc1cccnc1", 6.92]
]}

###

System: GM-CSF
Test: Inhibitory activity on GM-CSF production from LPS-stimulated human PBMC (immunoassay)
Format: cell-based
Setup conditions: 24 h, read-out: GM-CSF IC50 (µM)
Measured parameter: IC50 (µM)

{"columns": ["Compound", "Measured target", "Measured"],
 "data": [
  ["Cc1nnc2n1-c1ccccc1C(c1ccc(Cl)cc1)=NN2Cc1cccnc1 [compound 19]", "GM-CSF", 0.05]
]}
